# credit: patent US9133157B2

The compounds listed here are annotated with their pIC50.
- SYSTEM TESTED: WT HIV-1 protease (Human immunodeficiency virus type 1 group M subtype B (isolate HXB2) (HIV-1), UniProt P04585)
- ASSAY REMARKS: Assay for inhibition of microbial expressed HIV protease (Procedure A, peptide substrate, HPLC fluorescence detection)
- RUN PARAMETERS: WT HIV-1 protease 10 pM, substrate 400 micromolar, pH 5.5, 30 min preincubation, 1 hour at 30° C.; read-out: Enzyme inhibition IC50
- Experimental: The inhibition of WT HIV-1 protease was studied using the reaction of the protease (expressed in Eschericia coli) with a peptide substrate [Val-Ser-Gln-Asn-(betanaphthyl)Ala-Pro-Ile-Val (SEQ ID NO:1)]. Compounds were tested using Procedure A. In Procedure A, the test compound was first preincubated with the enzyme in assay buffer (50 mM sodium acetate, pH 5.5, 100 mM NaCl, and 0.1% BSA) for 30 minutes at room temperature. […]
# pIC50: negative log10 of molar concentration; output just the value

Incoming: So what does the record say about pIC50 for "COC(=O)N[C@H](C(=O)N[C@H](c1ccc([C@@H](CO)N(CCCC(F)(F)F)S(=O)(=O)c2ccc3ncsc3c2)s1)C(F)(F)F)C(c1ccccc1)c1ccccc1" ?
Outgoing: 8.75

Incoming: Look up pIC50: "COC(=O)N[C@H](C(=O)N[C@H](c1ccc([C@@H](CO)N(CC2CC(F)(F)C2)S(=O)(=O)c2ccc(N)cc2)s1)C(F)(F)F)C(c1ccccc1)c1ccccc1"
Outgoing: 9.12

Continuing:
Incoming: Give its pIC50 value. Item: COC(=O)N[C@H](C(=O)NCc1ccc(C(CO)N(Cc2ccnc(OC)c2)S(=O)(=O)c2ccc3scnc3c2)s1)C(c1ccccc1)c1ccccc1 (stereo partly drawn)
Outgoing: 7.81

###

- SYSTEM TESTED: WT HIV-1 protease (Human immunodeficiency virus type 1 group M subtype B (isolate HXB2) (HIV-1), UniProt P04585)
- ASSAY REMARKS: Assay for inhibition of microbial expressed HIV protease (Procedure A, peptide substrate, HPLC fluorescence detection)
- RUN PARAMETERS: WT HIV-1 protease 10 pM, substrate 400 micromolar, pH 5.5, 30 min preincubation, 1 hour at 30° C.; read-out: Enzyme inhibition IC50
Quick reference for pIC50 among some molecules
Just so you know, pIC50 here is -log10 of the concentration in molar units; reply with that number alone.

Known results for molecules:
Incoming: Could you tell me which pIC50 is on file for COC(=O)N[C@H](C(=O)N[C@H](c1ccc([C@@H](CO)N(CCC(C)(C)C)S(=O)(=O)c2cn3ccnc3cn2)s1)C(F)(F)F)C(c1ccccc1)c1ccccc1 [Example 99] ?
Outgoing: 8.47

Incoming: pIC50 lookup needed for "COC(=O)N[C@H](C(=O)N[C@H](c1ccc([C@@H](CO)N(CCC(C)(C)C)S(=O)(=O)c2cn3cc(Cl)nc3cn2)s1)C(F)(F)F)C(c1ccccc1)c1ccccc1" , thanks.
Outgoing: 7.86

Incoming: Please look up its pIC50: "COC(=O)N[C@H](C(=O)N[C@H](c1ccc([C@@H](CO)N(CCC(C)(C)C)S(=O)(=O)c2ccc(-c3ccno3)cc2)s1)C(F)(F)F)C(c1ccccc1)c1ccccc1"
Outgoing: 9.11

Incoming: Please report the recorded pIC50 for "COC(=O)N[C@H](C(=O)N[C@H](c1ccc([C@@H](CO)N(CCC(C)(C)C)S(=O)(=O)c2ccc3ncccc3c2)s1)C(F)(F)F)C(c1ccccc1)c1ccccc1" .
Outgoing: 8.69

Query molecule follows.
Incoming: What measured pIC50 goes with "COC(=O)N[C@H](C(=O)NCc1ccc([C@H](CO)N(CC(C)C)S(=O)(=O)c2ccc3scnc3c2)s1)C(c1ccccc1)c1ccccc1" ?
Outgoing: 7.22

###

- SYSTEM TESTED: WT HIV-1 protease (Human immunodeficiency virus type 1 group M subtype B (isolate HXB2) (HIV-1), UniProt P04585)
- ASSAY REMARKS: Assay for inhibition of microbial expressed HIV protease (Procedure A, peptide substrate, HPLC fluorescence detection)
- Assay type: biochemical
- RUN PARAMETERS: WT HIV-1 protease 10 pM, substrate 400 micromolar, pH 5.5, 30 min preincubation, 1 hour at 30° C.; read-out: Enzyme inhibition IC50
pIC50: −log10 of the molar value.
# binarize pIC50: threshold 8 inclusive, high side y, low side n

Incoming: Hello, I need to know if COC(=O)N[C@H](C(=O)NCc1ccc(C(CO)N(CC2CC(F)(F)C2)S(=O)(=O)c2ccc3c(c2)CCC3O)s1)C(c1ccccc1)c1ccccc1 (stereo partly drawn) [Example 36] has measured pIC50 not below 8. Thanks!
Outgoing: y

Incoming: Does pIC50 meet or surpass 8 for COC(=O)N[C@H](C(=O)NCc1ccc([C@@H](CO)N(Cc2cn[nH]c2)S(=O)(=O)c2ccc3scnc3c2)s1)C(c1ccccc1)c1ccccc1 [Example 32] ?
Outgoing: y

Incoming: Is reported pIC50 greater than or equal to 8 here: CC(C)CN(C(CO)c1ccc(CNC(=O)C(NC(=O)c2ccccc2)C(c2ccccc2)c2cn[nH]c2)s1)S(=O)(=O)c1ccc2ncsc2c1 (stereo not drawn) [Example 131]
Outgoing: n

Incoming: Item COC(=O)N[C@H](C(=O)NC(C)c1ccc(C(CO)N(CCC(C)C)S(=O)(=O)c2ccccc2)s1)C(c1ccccc1)c1ccccc1 (stereo partly drawn) [Example 7] with pIC50 of 8 or above?
Outgoing: y

Incoming: Exam item: decide whether the reported pIC50 for COC(=O)N[C@H](C(=O)N[C@H](c1ccc([C@@H](CO)N(CCC(C)(C)C)S(=O)(=O)c2ccc(N)c(Cl)c2)s1)C(F)(F)F)C(c1ccccc1)c1ccccc1 [Example 116] is at least 8.
Outgoing: y

Incoming: Please indicate if the recorded pIC50 for COC(=O)N[C@H](C(=O)NCc1ccc(C(CO)N(C(C)C)S(=O)(=O)c2ccc3scnc3c2)s1)C(c1ccccc1)c1ccccc1 (stereo partly drawn) [Example 21] meets or exceeds 8.
Outgoing: n

Incoming: Could you verify whether the entry COC(=O)N[C@H](C(=O)N[C@H](c1ccc([C@@H](CO)N(CCC(C)(C)C)S(=O)(=O)c2ccc3scnc3c2)s1)C(F)(F)F)C(c1ccccc1)c1ccccc1 [Example 91] shows pIC50 of no less than 8?
Outgoing: y

Next item in the queue.
Incoming: Kindly determine if pIC50 recorded for COC(=O)N[C@H](C(=O)NCc1ccc([C@@H](CO)N(Cc2cc3cccnc3[nH]2)S(=O)(=O)c2ccc(N)cc2)s1)C(c1ccccc1)c1ccccc1 [Example 13] is above or exactly 8.
Outgoing: y

###

The following compounds are shown together with reported IC50 values.
- SYSTEM TESTED: WT HIV-1 protease (Human immunodeficiency virus type 1 group M subtype B (isolate HXB2) (HIV-1))
- ASSAY REMARKS: Assay for inhibition of microbial expressed HIV protease (Procedure A, peptide substrate, HPLC fluorescence detection)
- RUN PARAMETERS: WT HIV-1 protease 10 pM, substrate 400 micromolar, pH 5.5, 30 min preincubation, 1 hour at 30° C.; read-out: Enzyme inhibition IC50
Please respond with the number in nM and leave the unit unwritten.

Look over these answered cases.
Incoming: For the compound COC(=O)N[C@H](C(=O)NC(C)(C)c1ccc(C(CO)N(CCC(C)C)S(=O)(=O)c2ccccc2)s1)C(c1ccccc1)c1ccccc1 (some centres unmarked) , what IC50 is on record?
Outgoing: 6.48

Incoming: Quick one: IC50 of "COC(=O)N[C@H](C(=O)N[C@H](c1ccc([C@@H](CO)N(CCC(C)(C)C)S(=O)(=O)c2ccc(N)cc2F)s1)C(F)(F)F)C(c1ccccc1)c1ccccc1" ?
Outgoing: 0.44

Incoming: Fill in: IC50 of "COC(=O)N[C@H](C(=O)N[C@H](c1ccc([C@@H](CO)N(CCC(C)(C)C)S(=O)(=O)c2ccc(N)c(F)c2)s1)C(F)(F)F)C(c1ccccc1)c1ccccc1" is ___
Outgoing: 1.23

Incoming: # lookup: IC50 of "COC(=O)N[C@H](C(=O)N[C@H](c1ccc([C@@H](CO)N(CCC(C)(C)C)S(=O)(=O)c2ccc3nccn3c2)s1)C(F)(F)F)C(c1ccccc1)c1ccccc1"
Outgoing: 6.64

Incoming: Which IC50 value belongs to COC(=O)N[C@H](C(=O)NCc1cc(C(CO)N(CCC(C)C)S(=O)(=O)c2ccccc2)cs1)C(c1ccccc1)c1ccccc1 (some centres unmarked) ?
Outgoing: 42.7

Others:
Incoming: Give its IC50 value. Item: "[2H]C([2H])([2H])C([2H])(N([C@H](CO)c1ccc([C@@H](NC(=O)[C@@H](NC(=O)OC)C(c2ccccc2)c2ccccc2)C(F)(F)F)s1)S(=O)(=O)c1ccc2ncsc2c1)C([2H])([2H])[2H]"
Outgoing: 34.7

Incoming: Item "COC(=O)N[C@H](C(=O)NCc1ccc([C@H](CO)N(Cc2ccnc(OC)c2)S(=O)(=O)c2ccc3scnc3c2)s1)C(c1ccccc1)c1ccccc1" has what recorded IC50?
Outgoing: 106

Incoming: Which IC50 value is on record for "COC(=O)N[C@H](C(=O)NCc1ccc([C@@H](CO)N(Cc2nonc2C)S(=O)(=O)c2ccc(N)cc2)s1)C(c1ccccc1)c1ccccc1" ?
Outgoing: 6.95

Incoming: State the recorded IC50 for this entry: COC(=O)N[C@H](C(=O)NCc1cnc(C(CO)N(CCC(C)C)S(=O)(=O)c2ccccc2)s1)C(c1ccccc1)c1ccccc1 (some centres unmarked)
Outgoing: 250

Incoming: # lookup: IC50 of "COC(=O)N[C@H](C(=O)N[C@H](c1ccc([C@@H](CO)N(CCC(C)(C)C)S(=O)(=O)c2cccc3[nH]ccc23)s1)C(F)(F)F)C(c1ccccc1)c1ccccc1"
Outgoing: 4.22

Incoming: Recorded IC50 for "[2H]C([2H])([2H])C([2H])(N([C@H](CO)c1ccc([C@@H](NC(=O)[C@@H](NC(=O)OC)C(c2ccccc2)c2ccccc2)C(F)(F)F)s1)S(=O)(=O)c1ccc(N)cc1F)C([2H])([2H])[2H]" , please?
Outgoing: 9.4
